Species: Rattus norvegicus
Assay: Calcium antagonistic activity determined by the inhibitory effect on high-potassium depolarization-induced contracture in isolated rat aorta.
Type: functional
endpoint.name: IC50 (µM)
Give just the number in µM; leave the unit off.

// below: answered compounds
CCCCCC1C(C(=O)OCCN(C)Cc2ccccc2)=C(C)N=C(C)/C1=C(/O)OCCN(C)Cc1ccccc1 (centres undefined): 115
CC1=NC(C)=C(C(=O)OCc2ccncc2)C(C2=C(C)SCCS2)/C1=C(\O)OCc1ccncc1 (centres undefined): 8.7
CCCCCC1C(C(=O)OCCCc2cccnc2)=C(C)N=C(C)/C1=C(/O)OCCCN1CCN(Cc2ccccc2)CC1 (centres undefined): 33
CCCCCC1C(C(=O)OCCN(C)Cc2ccccc2)=C(C)N=C(C)/C1=C(/O)OCCCc1cccnc1 (centres undefined): 135
CCCCCC1C(C(=O)OCCCc2cccnc2)=C(C)N=C(C)/C1=C(/O)OCCCN1CCN(C(c2ccccc2)c2ccccc2)CC1 (centres undefined): 175
COC(=O)C1=C(C)NC(C)=C(C(=O)OCCN(C)Cc2ccccc2)C1c1cccc([N+](=O)[O-])c1 (centres undefined): 1.4

Respond only with IC50 recorded for CCCCCC1C(C(=O)OCCc2ccc(N(C)C)cc2)=C(C)N=C(C)/C1=C(/O)OCCCc1cccnc1 (centres undefined) 45

Name the recorded IC50 of the compound listed here: CCCCCC1C(C(=O)OCCCc2cccnc2)=C(C)N=C(C)/C1=C(/O)OCCCc1cccnc1 (centres undefined) 46

Identify measured IC50 associated with CCCCCC1C(C(=O)OCCCN2CCN(Cc3ccccc3)CC2)=C(C)N=C(C)/C1=C(/O)OCCCN1CCN(Cc2ccccc2)CC1 (centres undefined) 230
